- System: RARg homodimer (NR concentration 270 nM)
- METHOD_SUMMARY: PBM binding z-score (relative to random genomic background probes); higher = stronger binding; sequences stand for … in GC…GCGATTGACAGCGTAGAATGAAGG
Decide using PBM binding z-score: a value greater than or equal to 3 is Satisfied, a smaller one is Not satisfied.

Worked examples, 5 sequences total:
SEQUENCE_RECORD | GROUP_LABEL
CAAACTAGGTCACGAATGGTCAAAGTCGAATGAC | Satisfied
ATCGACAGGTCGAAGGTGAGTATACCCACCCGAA | Not satisfied
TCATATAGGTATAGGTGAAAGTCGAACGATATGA | Not satisfied
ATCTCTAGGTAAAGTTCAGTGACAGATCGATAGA | Not satisfied
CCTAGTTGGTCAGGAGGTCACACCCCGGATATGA | Satisfied

hey, is PBM binding z-score for this one >= 3? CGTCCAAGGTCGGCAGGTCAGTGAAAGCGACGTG
Satisfied

====

- Tested on: LXRa:RXRa (NR concentration 270 nM, RXRa partner concentration 90 nM)
- METHOD_SUMMARY: PBM binding z-score (relative to random genomic background probes); higher = stronger binding; sequences stand for … in GC…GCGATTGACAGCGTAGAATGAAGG
Decide using PBM binding z-score: a value greater than or equal to 2 is 1, a smaller one is -1.

Worked examples, 2 sequences total:
SEQUENCE_RECORD | GROUP_LABEL
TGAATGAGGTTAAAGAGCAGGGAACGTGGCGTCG | 1
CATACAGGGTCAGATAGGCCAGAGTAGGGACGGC | 1

hey, is PBM binding z-score for this one >= 2? CGTCTAAGGTCAATGCTAGGTCAGTGAAAGCATT
1

hey, is PBM binding z-score for this one >= 2? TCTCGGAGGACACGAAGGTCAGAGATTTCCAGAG
-1

hey, is PBM binding z-score for this one >= 2? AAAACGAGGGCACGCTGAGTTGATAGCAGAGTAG
-1

hey, is PBM binding z-score for this one >= 2? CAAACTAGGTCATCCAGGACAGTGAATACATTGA
1

hey, is PBM binding z-score for this one >= 2? TGAATGAGGTTATAAGATCAGGTAACGTTGCAAA
-1

====

- Tested on: LXRb:RXRa (NR concentration 270 nM, RXRa partner concentration 90 nM)
- METHOD_SUMMARY: PBM binding z-score (relative to random genomic background probes); higher = stronger binding; sequences stand for … in GC…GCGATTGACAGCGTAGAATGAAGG
PROPERTY_NAME: PBM binding z-score
Answers are plain numbers.

SEQUENCE_RECORD | OBSERVED_MEASUREMENT
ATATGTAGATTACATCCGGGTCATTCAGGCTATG | 1.99
AATACAGGGTCATCGTAGGCAAGAGTACGCACAG | 4.59
CTCTAAAGGTCGTGCTCAGGTGAGTATACCAAAC | 3.65
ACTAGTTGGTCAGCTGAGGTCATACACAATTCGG | 3.54
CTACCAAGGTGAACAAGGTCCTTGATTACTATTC | 0.744

Next sequence, please.
Look at this sequence and give its reported PBM binding z-score. ATATGTAGGTTATCGGTTCATTCAGTTTGCGCAT
1.71

====

- Test system: RXRa homodimer (NR concentration 180 nM)
- METHOD_SUMMARY: PBM binding z-score (relative to random genomic background probes); higher = stronger binding; sequences stand for … in GC…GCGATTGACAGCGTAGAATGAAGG
PROPERTY_NAME: PBM binding z-score
Numbers only.

// known answers, use as guide
SEQUENCE_RECORD | PBM binding z-score
CCGACTGGGGCATTAGGTTACCATAAGCCAGCCC | 0.21
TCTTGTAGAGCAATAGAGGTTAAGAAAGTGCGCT | 0.858
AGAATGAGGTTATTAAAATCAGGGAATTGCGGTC | 1.43
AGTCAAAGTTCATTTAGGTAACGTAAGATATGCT | 4.35
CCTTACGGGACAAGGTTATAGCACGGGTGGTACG | 1.35

Report PBM binding z-score for each item below.
1. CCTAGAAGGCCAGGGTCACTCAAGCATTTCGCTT
2. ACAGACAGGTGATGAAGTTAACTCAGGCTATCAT
3. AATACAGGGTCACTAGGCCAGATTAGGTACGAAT

3.9
0.00488
5.9

Report PBM binding z-score for each item below.
1. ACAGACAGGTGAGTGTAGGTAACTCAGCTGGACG
2. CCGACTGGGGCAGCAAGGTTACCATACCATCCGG
3. CATACAGGGTCAGCTAGGCGAGAGTAGGGACGGC
4. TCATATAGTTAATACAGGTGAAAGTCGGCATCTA
5. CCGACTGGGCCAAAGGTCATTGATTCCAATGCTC
6. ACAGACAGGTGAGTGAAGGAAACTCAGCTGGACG

0.232
0.706
4.02
1.2
5.7
0.249

Report PBM binding z-score for each item below.
1. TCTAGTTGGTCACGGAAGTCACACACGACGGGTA
2. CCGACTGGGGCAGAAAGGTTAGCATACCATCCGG
3. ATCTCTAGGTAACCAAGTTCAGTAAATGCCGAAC
4. TCTATTAGTTCAAGGGCAACCGACGAGTCCGTTT

1: 1.21; 2: 0.988; 3: 0.802; 4: 1.58

====

- Tested on: THRa homodimer (NR concentration 90 nM)
- METHOD_SUMMARY: PBM binding z-score (relative to random genomic background probes); higher = stronger binding; sequences stand for … in GC…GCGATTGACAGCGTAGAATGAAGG
Please go through the items and note down their PBM binding z-score.

SEQUENCE_RECORD | PBM binding z-score
GGAACGAGGGCAAGTTGATGGCAGAGTTTGATGG | 0.188

Report PBM binding z-score for each item below.
1. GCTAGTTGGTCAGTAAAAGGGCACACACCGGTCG
2. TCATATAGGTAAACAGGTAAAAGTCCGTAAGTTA
3. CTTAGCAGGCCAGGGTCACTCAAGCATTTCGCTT
4. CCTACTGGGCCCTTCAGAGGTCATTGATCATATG

1. -0.0299
2. 0.445
3. 1.32
4. 1.18

Report PBM binding z-score for each item below.
1. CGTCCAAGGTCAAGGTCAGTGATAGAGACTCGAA
2. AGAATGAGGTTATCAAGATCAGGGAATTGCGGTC
3. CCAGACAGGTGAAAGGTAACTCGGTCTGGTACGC

1. 3.93
2. 0.835
3. 0.0486

Report PBM binding z-score for each item below.
1. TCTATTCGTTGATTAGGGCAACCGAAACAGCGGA
2. CAAACAAGGTCAAGAGGTCAAAGTCCGCTTCCCG
3. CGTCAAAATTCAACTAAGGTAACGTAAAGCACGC
4. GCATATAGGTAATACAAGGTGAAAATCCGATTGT
5. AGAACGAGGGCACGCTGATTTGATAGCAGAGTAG
6. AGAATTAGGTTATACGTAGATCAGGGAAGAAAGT
7. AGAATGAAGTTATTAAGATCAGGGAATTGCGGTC
8. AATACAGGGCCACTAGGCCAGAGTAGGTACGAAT

0.073
3.28
1.75
0.487
-0.138
0.539
-0.315
-0.308

Report PBM binding z-score for each item below.
1. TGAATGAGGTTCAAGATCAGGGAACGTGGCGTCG
2. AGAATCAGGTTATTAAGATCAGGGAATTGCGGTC
3. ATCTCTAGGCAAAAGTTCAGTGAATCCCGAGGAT
4. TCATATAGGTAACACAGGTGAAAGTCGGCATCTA
5. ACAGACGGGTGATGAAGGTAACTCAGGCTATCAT
6. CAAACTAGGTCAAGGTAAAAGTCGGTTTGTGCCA
7. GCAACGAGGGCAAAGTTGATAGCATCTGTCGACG

[-0.612, 0.84, -0.181, 0.518, 0.269, 1.49, -0.191]

Report PBM binding z-score for each item below.
1. CCTAGCGGGCCAGGGTCACTCAAGCATTTCGCTT
2. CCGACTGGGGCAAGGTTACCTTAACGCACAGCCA
3. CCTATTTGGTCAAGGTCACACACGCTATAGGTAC

1: 1.19; 2: 1.66; 3: 4.49

====

- Tested on: LXRb homodimer (NR concentration 270 nM)
- METHOD_SUMMARY: PBM binding z-score (relative to random genomic background probes); higher = stronger binding; sequences stand for … in GC…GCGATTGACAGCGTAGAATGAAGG
Please go through the items and note down their PBM binding z-score.
Numbers only.

// known answers, use as guide
SEQUENCE_RECORD | OBSERVED_MEASUREMENT
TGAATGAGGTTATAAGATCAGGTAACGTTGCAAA | 0.248
AATAGAGGGTCACTAGGCCAGAGTAGGTACGAAT | -0.0545
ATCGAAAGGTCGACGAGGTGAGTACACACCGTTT | 0.25
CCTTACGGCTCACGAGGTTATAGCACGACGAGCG | -0.33

Report PBM binding z-score for each item below.
1. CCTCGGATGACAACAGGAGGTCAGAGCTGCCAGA
2. GCCCGGAGGACAAGGTCAGAGCTTTGTCCGTAGA
3. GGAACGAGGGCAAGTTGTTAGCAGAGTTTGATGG
4. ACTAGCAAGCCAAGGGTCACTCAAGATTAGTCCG

-0.0301
-1.25
-0.646
-0.201
